Catalogue of binders with associated percentage reduction of b-hBSSL binding to CD14+ monocytes
EXPERIMENTAL_TARGET: T1, Biotinylated human BSSL (human, UniProt P19835 21-753, Biotinylated on glycosacarides, 30-40 biotin/BSSL)
T1 construct: hBSSL biotinylated in house; also called b-hBSSL; human BSSL-biotin
T1 sequence: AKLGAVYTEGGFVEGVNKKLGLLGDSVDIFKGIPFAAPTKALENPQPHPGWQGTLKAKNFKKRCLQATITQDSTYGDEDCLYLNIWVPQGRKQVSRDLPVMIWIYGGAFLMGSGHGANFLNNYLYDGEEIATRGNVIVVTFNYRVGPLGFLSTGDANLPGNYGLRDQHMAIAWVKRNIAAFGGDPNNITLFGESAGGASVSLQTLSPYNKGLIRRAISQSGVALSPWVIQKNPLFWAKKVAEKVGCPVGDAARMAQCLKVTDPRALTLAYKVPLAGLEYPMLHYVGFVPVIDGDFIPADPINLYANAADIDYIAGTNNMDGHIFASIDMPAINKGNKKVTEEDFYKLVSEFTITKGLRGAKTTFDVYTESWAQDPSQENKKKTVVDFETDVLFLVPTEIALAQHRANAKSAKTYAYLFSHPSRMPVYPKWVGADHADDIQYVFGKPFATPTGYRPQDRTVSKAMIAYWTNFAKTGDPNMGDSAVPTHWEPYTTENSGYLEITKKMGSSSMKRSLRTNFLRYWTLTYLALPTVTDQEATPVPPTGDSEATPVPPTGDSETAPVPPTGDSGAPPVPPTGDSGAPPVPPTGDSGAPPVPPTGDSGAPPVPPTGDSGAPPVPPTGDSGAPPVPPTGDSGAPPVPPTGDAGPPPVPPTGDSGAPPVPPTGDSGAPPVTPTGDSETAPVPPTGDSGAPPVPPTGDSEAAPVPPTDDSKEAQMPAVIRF
TEST_METHOD_NOTES: flow cytometry displacement assay; 1.5 ug antibody, 1 ug b-hBSSL
MEASUREMENT_NAME: percentage reduction of b-hBSSL binding to CD14+ monocytes (%)

BINDER	OBS_VALUE
S-SL048-103 hIgG4 S228P (antibody, V domains shown, Tested as human IgG4 S228P) VH: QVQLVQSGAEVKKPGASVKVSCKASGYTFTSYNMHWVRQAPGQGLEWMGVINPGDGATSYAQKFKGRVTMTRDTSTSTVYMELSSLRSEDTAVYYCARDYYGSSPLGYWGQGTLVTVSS VL: DIQMTQSPSSLSASVGDRVTITCRASSSISYMHWYQQKPGKAPKLLIYATSSLASGVPSRFSGSGSGTDFTLTISSLQPEDFATYYCHQRSSSPTFGQGTKLEIK	26
S-SL048-43 hIgG4 S228P (antibody, V domains shown, Tested as human IgG4 S228P) VH: QVQLVQSGAEVKKPGASVKVSCKASGYTFTSYNMHWVRQAPGQGLEWMGVINPGDGATSYTQKFQGRVTMTRDTSTSTVYMELSSLRSEDTAVYYCARDYYGSSPLGYWGQGTLVTVSS VL: DIQMTQSPSSLSASVGDRVTITCRASPSISYMNWYQQKPGKAPKLLIYAASSLPSGVPSRFSGSGSGTDFTLTISSLQPEDFATYYCQQRSSSPTFGQGTKLEIK	37
